Cited source: patent US20260176265A1

- assay_target: Phospho-EGFR (Tyr1068) in A431 cells (Homo sapiens, UniProt P00533)
- Construct: endogenous in cells
- Sequence (P00533 25-1210): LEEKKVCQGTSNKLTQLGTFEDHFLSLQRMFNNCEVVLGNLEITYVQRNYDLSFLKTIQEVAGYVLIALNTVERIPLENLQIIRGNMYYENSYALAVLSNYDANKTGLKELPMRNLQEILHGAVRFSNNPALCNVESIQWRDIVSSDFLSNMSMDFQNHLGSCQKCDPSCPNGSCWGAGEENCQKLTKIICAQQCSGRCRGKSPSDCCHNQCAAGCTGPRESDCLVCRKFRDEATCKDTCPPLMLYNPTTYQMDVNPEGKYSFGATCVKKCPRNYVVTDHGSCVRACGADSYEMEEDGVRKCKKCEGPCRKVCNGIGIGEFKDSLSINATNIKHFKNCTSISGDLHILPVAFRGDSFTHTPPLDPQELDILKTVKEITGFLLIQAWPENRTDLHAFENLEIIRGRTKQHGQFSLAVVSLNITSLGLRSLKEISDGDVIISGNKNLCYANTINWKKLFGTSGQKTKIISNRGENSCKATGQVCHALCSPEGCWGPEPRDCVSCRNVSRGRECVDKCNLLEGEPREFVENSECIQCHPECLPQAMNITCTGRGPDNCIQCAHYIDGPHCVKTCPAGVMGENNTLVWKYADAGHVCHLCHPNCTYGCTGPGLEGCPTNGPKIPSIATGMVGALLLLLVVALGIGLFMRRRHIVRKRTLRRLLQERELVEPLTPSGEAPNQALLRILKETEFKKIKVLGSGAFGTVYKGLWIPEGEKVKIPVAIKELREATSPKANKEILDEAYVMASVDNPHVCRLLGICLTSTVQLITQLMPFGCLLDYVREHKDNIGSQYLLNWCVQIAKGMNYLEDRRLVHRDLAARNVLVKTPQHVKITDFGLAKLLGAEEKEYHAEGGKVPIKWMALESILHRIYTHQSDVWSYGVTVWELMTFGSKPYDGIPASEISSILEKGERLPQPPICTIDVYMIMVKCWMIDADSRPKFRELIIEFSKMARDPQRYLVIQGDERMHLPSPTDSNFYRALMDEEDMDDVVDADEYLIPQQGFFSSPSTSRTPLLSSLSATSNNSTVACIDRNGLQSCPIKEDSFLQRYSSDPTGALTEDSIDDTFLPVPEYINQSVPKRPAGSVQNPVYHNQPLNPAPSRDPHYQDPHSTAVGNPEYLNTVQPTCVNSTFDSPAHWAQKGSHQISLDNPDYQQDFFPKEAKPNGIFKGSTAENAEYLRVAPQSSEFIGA
- assay_comment: HTRF pEGFR/total EGFR assay in A431 cells (EGF stimulated)
- stated_conditions: compound 2.5 hours then 100 ng/ml EGF 30 mins, ratio pEGFR/total EGFR
property_name: IC50

// worked examples, IC50 included
compound="C#Cc1cc(NC(=O)NC2CCCC2)nc2nc(Nc3ccccc3N3CCCC(CS(C)(=O)=O)C3)ncc12 (stereo not shown) [Example 118]" property_name=IC50 result="> 3 µM"
compound="C#Cc1cc(N2C(=O)NCC23CCCC3)nc2nc(Nc3ccc(S(C)(=O)=O)cc3)ncc12 [Example 96]" property_name=IC50 result="1 to 3 µM"
compound="C#Cc1cc(Nc2nccn2C2CCCC2)nc2nc(Nc3ccc(N4CCN(C)CC4)cc3)ncc12 [Example 27]" property_name=IC50 result="> 3 µM"

In: So what IC50 did C#Cc1cc(OC)nc2nc(Nc3ccc(N4CCN(C)CC4)c(NCC4CCC4)c3)ncc12 [Example 10] get with Phospho-EGFR (Tyr1068) in A431 cells (Homo sapiens, UniProt P00533)?
Out: > 3 µM

###

- assay_target: CtermHisTag-mEGFR Wild type (Homo sapiens)
- Sequence (P00533 25-1210): as above
pIC50: −log10 of the molar value.
This listing pairs compounds with measured pIC50.

compound=C#Cc1cc(N2CCCC2=O)nc2nc(Nc3ccc(N4CCN(C)CC4)cc3)ncc12 assay_target="CtermHisTag-mEGFR Wild type (Homo sapiens)" property_name=pIC50 result="5.00 to 6.00"
compound=C#Cc1cc(NC(=O)NC2CCCC2)nc2nc(Nc3cccc4c3CCN(C)C4)ncc12 assay_target="CtermHisTag-mEGFR Wild type (Homo sapiens)" property_name=pIC50 result="< 5.00"
compound=C#Cc1cc(NC(=O)N2Cc3ccccc3C2)nc2nc(Nc3ccc(N4CCN(C)CC4)cc3)ncc12 assay_target="CtermHisTag-mEGFR Wild type (Homo sapiens)" property_name=pIC50 result="< 5.00"
compound=C#Cc1cc(NC(=O)NC2CCCC2)nc2nc(Nc3ccc(N(C)C(=O)CN4CCC4)cc3)ncc12 assay_target="CtermHisTag-mEGFR Wild type (Homo sapiens)" property_name=pIC50 result="5.00 to 6.00"
compound="C#Cc1cc(N2C(=O)NCC2C2CCCC2)nc2nc(Nc3ccc(N4CCN(C)CC4)cc3)ncc12 (stereo not shown)" assay_target="CtermHisTag-mEGFR Wild type (Homo sapiens)" property_name=pIC50 result="> 6.00"
compound=C#Cc1cc(OC(C)C)nc2nc(Nc3ccc(N4CCN(C)CC4)cc3)ncc12 assay_target="CtermHisTag-mEGFR Wild type (Homo sapiens)" property_name=pIC50 result="< 5.00"
compound=C#Cc1cc(OC2CC2)nc2nc(Nc3ccc(N4CCN(C)CC4)cc3)ncc12 assay_target="CtermHisTag-mEGFR Wild type (Homo sapiens)" property_name=pIC50 result="< 5.00"
compound="C#Cc1cc(N2C(=O)OCC2C(C)C)nc2nc(Nc3ccc(N4CCN(C)CC4)cc3)ncc12 (stereo not shown)" assay_target="CtermHisTag-mEGFR Wild type (Homo sapiens)" property_name=pIC50 result="5.00 to 6.00"

In: So what pIC50 did C#Cc1cc(OCc2cscn2)nc2nc(Nc3ccc(N4CCN(C)CC4)cc3)ncc12 get with CtermHisTag-mEGFR Wild type (Homo sapiens)?
Out: < 5.00

In: So what pIC50 did C#Cc1cc(NC(=O)NC2CCCC2)nc2nc(Nc3cccc4c3CN(C)C4)ncc12 get with CtermHisTag-mEGFR Wild type (Homo sapiens)?
Out: 5.00 to 6.00

In: So what pIC50 did C#Cc1cc(NC(=O)NC2CCCC2)nc2nc(Nc3ccc(N(C)C(=O)CN(C)C)cc3)ncc12 get with CtermHisTag-mEGFR Wild type (Homo sapiens)?
Out: > 6.00

In: So what pIC50 did C#Cc1cc(N2C(=O)OCC2C2CCCC2)nc2nc(Nc3ccc(N4CCN(C)CC4)cc3)ncc12 (stereo not shown) get with CtermHisTag-mEGFR Wild type (Homo sapiens)?
Out: 5.00 to 6.00

In: So what pIC50 did C#Cc1cc(NC(=O)NCC2CCCO2)nc2nc(Nc3ccc(N4CCN(C)CC4)cc3)ncc12 (stereo not shown) get with CtermHisTag-mEGFR Wild type (Homo sapiens)?
Out: > 6.00
